ASSAY_OVERVIEW: IN Cell qHTS Assay for Inhibitors of the mTORC1 Signaling Pathway in MEF (Tsc2-/-, p53-/-) Cells: Sytravon; note: nearly all actives have a fitted effect of over 60% in size
MEASUREMENT_CONDITIONS: phospho-rpS6 immunofluorescence, 24 h; series mostly up to 38.3 µM
The whole screen tested about 2,100 compounds, of which about 210 (10%) were called active. Not shown: some 53% with an inconclusive outcome. Calls come from the whole dose curve; as a rule, active = well fitted inhibition curve with a large enough effect; inconclusive = small, poorly fitted or top-dose-only effect, or effect the other way; inactive = no such curve, though single readings can be large or run the other way. This is one part of the list.
Classes used: Yes for active, No for inactive

COMPOUND: CCc1ccc(C(=O)CC2(O)C(=O)N(Cc3ccc(C)cc3)c3ccccc32)cc1 (centres undefined)
GROUP_LABEL: No
//
COMPOUND: O=C(Cn1cc(SCc2ccccc2)c2ccccc21)N1CCCCC1
GROUP_LABEL: No
//
COMPOUND: CCOC(=O)c1c(-c2ccccc2)oc2ccc(N(C(C)=O)S(=O)(=O)c3ccc(CC)cc3)cc12
GROUP_LABEL: No
//
COMPOUND: CCCCC1CCC(C(=O)N2CC(=O)Nc3ccc(F)cc3C2c2ccc(F)cc2)CC1 (centres undefined)
GROUP_LABEL: Yes
//
COMPOUND: Cc1cccc(OCc2ccc(-c3nc(C#N)c(NCCN(C)C)o3)o2)c1
GROUP_LABEL: Yes
//
COMPOUND: Cc1ccc(CN2C(=O)C(O)(CC(=O)c3ccc(C)cc3)c3ccccc32)cc1 (centres undefined)
GROUP_LABEL: Yes
//
COMPOUND: Cc1ccccc1OCc1ccc(-c2nc(C#N)c(N3CCN(C)CC3)o2)o1
GROUP_LABEL: No
//
COMPOUND: COc1cc(C(=O)CC2(O)C(=O)N(Cc3ccccc3Cl)c3ccccc32)cc(OC)c1OC (centres undefined)
GROUP_LABEL: Yes
//
COMPOUND: O=S(=O)(NCC(c1ccco1)S(=O)(=O)c1ccccc1)c1cc(F)ccc1F (centres undefined)
GROUP_LABEL: No
//
COMPOUND: Cc1cncn1CCc1nc2c3ccccc3nc(SCC(=O)Nc3ccccc3F)n2n1
GROUP_LABEL: No
//
COMPOUND: COc1ccc(CNc2oc(COc3cccc(C)c3)nc2C#N)cc1
GROUP_LABEL: Yes
//
COMPOUND: CCC1=Nc2cc(C(=O)NCC(C)c3ccccc3)ccc2Sc2ccc(C)cc21 (centres undefined)
GROUP_LABEL: No
//
COMPOUND: COc1ccc(CNc2oc(/C=C/c3cccc(OC)c3)nc2C#N)cc1
GROUP_LABEL: No
//
COMPOUND: CCOCc1cc(CN2CCN(c3cccc(C(F)(F)F)c3)CC2)c(O)c2ncccc12
GROUP_LABEL: No

Data origin, for the record: PubChem BioAssay AID504465
